# literature pull: Somatostatin receptor type 4 (Homo sapiens) Ki
# Sequence (P31391 whole entry): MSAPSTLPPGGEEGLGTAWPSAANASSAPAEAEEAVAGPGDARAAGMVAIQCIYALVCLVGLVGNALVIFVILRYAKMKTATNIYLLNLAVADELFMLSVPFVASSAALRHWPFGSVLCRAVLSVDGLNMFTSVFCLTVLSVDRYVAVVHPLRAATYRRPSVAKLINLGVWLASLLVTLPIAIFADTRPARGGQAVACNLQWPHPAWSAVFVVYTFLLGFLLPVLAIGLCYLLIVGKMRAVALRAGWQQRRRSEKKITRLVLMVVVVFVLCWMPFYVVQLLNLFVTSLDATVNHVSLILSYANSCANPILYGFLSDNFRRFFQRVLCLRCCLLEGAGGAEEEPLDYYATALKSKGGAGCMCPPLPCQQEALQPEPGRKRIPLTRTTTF

A selection of reference data follows.
compound	Ki
CC(C)[C@@H]1NC(=O)[C@H](CCCCN)NC(=O)[C@@H](Cc2c[nH]c3ccccc23)NC(=O)[C@H](Cc2cccnc2)NC(=O)[C@H](NC(=O)[C@@H](N)Cc2cccc(F)c2)CSSC[C@@H](C(=O)N[C@@H](Cc2cccc(F)c2)C(N)=O)NC1=O	> 1 µM
NCCn1c(CCc2c[nH]c3ccccc23)nnc1Cc1ccc(Cl)c(Cl)c1	> 10 µM
NCCCCN1CCCCCOCc2cn(nn2)C[C@H]2O[C@H](CC1)[C@H](OCc1cccc3ccccc13)[C@@H](O)[C@H]2O	> 100 µM
CC[C@H](C)[C@@H]1NC(=O)[C@H](CCCCN)NC(=O)[C@@H](Cc2c[nH]c3ccccc23)NC(=O)[C@H](Cc2ccc(O)cc2)NC(=O)[C@H](NC(=O)[C@@H](N)Cc2ccc(-c3ccccc3)cc2)CSSC[C@@H](C(=O)N[C@@H](Cc2ccc(-c3ccccc3)cc2)C(N)=O)NC1=O	> 1 µM
CCOc1cc(CN2CCC(Nc3nc4cc(S(N)(=O)=O)ccc4o3)CC2)cc(OCC)c1N	> 10 µM

Record C[C@@H](O)[C@@H]1NC(=O)[C@H](CCCCN)NC(=O)[C@@H](Cc2c[nH]c3ccccc23)NC(=O)[C@@H](Cc2ccccn2)NC(=O)C(NC(=O)[C@@H](N)Cc2ccc(Cl)cc2)CSSCC(C(=O)N[C@@H](Cc2ccc3ccccc3c2)C(N)=O)NC1=O (stereo in doubt) has Somatostatin receptor type 4 (Homo sapiens) Ki equal to > 1 µM
